src = the Human Domainome abundance scans (Beltran et al. 2025)

B1: Histidine--tRNA ligase, cytoplasmic, residues 8 to 45; numbered along this chain, P12081 (parent)
chain: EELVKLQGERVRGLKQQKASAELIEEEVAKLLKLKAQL

# Variants of: B1
# Method Description: abundance fitness (aPCA) (normalised: wild type 0, dead -1); higher = more abundant; growth selection in yeast, the domain comes from the species named
# Condition Context: Homo sapiens
Exercise: state measured abundance fitness for each of the variants provided.
Format: numeric value only, no unit, no commentary.

Input line: Requested field: abundance fitness. Item: EESVKLQGERVRGLKQQKASAELIEEEVAKLLKLKAQL [L3S]
Output line: -0.066

Input line: Another variant to look at: EELVKLQGERVRGLKQQKASAELIEWEVAKLLKLKAQL [E26W]
Output line: -0.594

Input line: Another variant to look at: EELVKLQGERVRGLKQQKPSAELIEEEVAKLLKLKAQL [A19P]
Output line: -0.145

Input line: Another variant to look at: EELVKLQGEKVRGLKQQKASAELIEEEVAKLLKLKAQL [R10K]
Output line: 0.245

Input line: Another variant to look at: EELVKLQGERVRGLKQQKAVAELIEEEVAKLLKLKAQL [S20V]
Output line: -0.693

Input line: Another variant to look at: EELVKLQGERVRGLKQQKASAELIEEEVAKLLKLKAQE [L38E]
Output line: 0.204

Input line: Another variant to look at: EELVKLQGERVRGLKQQKASAELIEEEVAKRLKLKAQL [L31R]
Output line: -0.126

Input line: Another variant to look at: EELVKLQGERVRGLKLQKASAELIEEEVAKLLKLKAQL [Q16L]
Output line: -0.057

Input line: Another variant to look at: EELVKLWGERVRGLKQQKASAELIEEEVAKLLKLKAQL [Q7W]
Output line: -1.15

Input line: Another variant to look at: EELVKLQGERVRGLKQQKASAELIEVEVAKLLKLKAQL [E26V]
Output line: -0.116

Input line: Another variant to look at: EELVKLQGERVRGLKQQKASAELIEEEVAKLMKLKAQL [L32M]
Output line: 0.206

Input line: Another variant to look at: EELVKLQGERVRGLKQQKASAELEEEEVAKLLKLKAQL [I24E]
Output line: -0.151

Input line: Another variant to look at: EELVKLQGERVRGLKQQKASAELIEEEVAKLLQLKAQL [K33Q]
Output line: 0.037

Input line: Another variant to look at: EELVKLQGERVRGLKQQKASAELGEEEVAKLLKLKAQL [I24G]
Output line: -0.068

Input line: Another variant to look at: EELVKLQGERVRGLKQQKASAELIDEEVAKLLKLKAQL [E25D]
Output line: 0.012

Input line: Another variant to look at: EELVKLQGERVRGLKQQWASAELIEEEVAKLLKLKAQL [K18W]
Output line: -0.619

Input line: Another variant to look at: EELVKLQGERVRGLKQQKASAELIEEEVCKLLKLKAQL [A29C]
Output line: -0.415

Input line: Another variant to look at: EELDKLQGERVRGLKQQKASAELIEEEVAKLLKLKAQL [V4D]
Output line: -0.01

Input line: Another variant to look at: EELVKLQGERVRGLKQQKASGELIEEEVAKLLKLKAQL [A21G]
Output line: -0.151

Input line: Another variant to look at: EELVKLQGERVRGLKQIKASAELIEEEVAKLLKLKAQL [Q17I]
Output line: -0.388

Input line: Another variant to look at: EELVKLQGERVRGLKQQVASAELIEEEVAKLLKLKAQL [K18V]
Output line: -0.236

Input line: Another variant to look at: EELVKLQGARVRGLKQQKASAELIEEEVAKLLKLKAQL [E9A]
Output line: -0.186

Input line: Another variant to look at: EELVKLQGERVRGLKQQKASAGLIEEEVAKLLKLKAQL [E22G]
Output line: -0.03

Input line: Another variant to look at: EELVKLQGERVRGLKQQKASAHLIEEEVAKLLKLKAQL [E22H]
Output line: -0.156

Input line: Another variant to look at: ERLVKLQGERVRGLKQQKASAELIEEEVAKLLKLKAQL [E2R]
Output line: -0.661

Input line: Another variant to look at: EELVKLQGERVRGLKQQKASAELIEEEVAKLLVLKAQL [K33V]
Output line: -0.436

Input line: Another variant to look at: EELVKLQGERVSGLKQQKASAELIEEEVAKLLKLKAQL [R12S]
Output line: 0.098

Input line: Another variant to look at: EELVKLQGERVRGLKQQKASAELIEERVAKLLKLKAQL [E27R]
Output line: -0.741

Input line: Another variant to look at: EELVKLQGERVRGLKQQKASAELIEEEVAKILKLKAQL [L31I]
Output line: -0.426

Input line: Another variant to look at: EELVKLQGERVRGLKQQKKSAELIEEEVAKLLKLKAQL [A19K]
Output line: -0.264

Input line: Another variant to look at: EELVKLQGERVRGLKQQKAKAELIEEEVAKLLKLKAQL [S20K]
Output line: -0.118

Input line: Another variant to look at: EELVPLQGERVRGLKQQKASAELIEEEVAKLLKLKAQL [K5P]
Output line: -0.54

Input line: Another variant to look at: EELVKLQGERVRGLKQQYASAELIEEEVAKLLKLKAQL [K18Y]
Output line: -0.342

Input line: Another variant to look at: EELVKLQGERVRGLKQQKASAELIEEEVAKLLKLKASL [Q37S]
Output line: 0.065

Input line: Another variant to look at: EELVKLQTERVRGLKQQKASAELIEEEVAKLLKLKAQL [G8T]
Output line: 0.217

Input line: Another variant to look at: EELVKLQGERVRGLKQQKASFELIEEEVAKLLKLKAQL [A21F]
Output line: -0.075

Input line: Another variant to look at: EELVKLQGERVRGLKQQKASAELIEEEVAKLLKLKALL [Q37L]
Output line: -0.164

Input line: Another variant to look at: EELVKLQGERVRGLKQQKASLELIEEEVAKLLKLKAQL [A21L]
Output line: -0.058

Input line: Another variant to look at: EELVKLQGERVRGLKQQKASAELIEEEVAKCLKLKAQL [L31C]
Output line: -0.187

Input line: Another variant to look at: EELVKLQGERVRGLKQQKASAELLEEEVAKLLKLKAQL [I24L]
Output line: 0.03

Input line: Another variant to look at: EELVKRQGERVRGLKQQKASAELIEEEVAKLLKLKAQL [L6R]
Output line: 0.051

Input line: Another variant to look at: EELVKLQGERVRGLKQQKASAELIEEEVAKLLKLKAVL [Q37V]
Output line: -0.173

Input line: Another variant to look at: EELVKLQGERVRGLKQQKASAELIEEEVAKLLKLLAQL [K35L]
Output line: -0.051

Input line: Another variant to look at: EELVKLQGERVRGLKQQKASAELIHEEVAKLLKLKAQL [E25H]
Output line: 0

Input line: Another variant to look at: EETVKLQGERVRGLKQQKASAELIEEEVAKLLKLKAQL [L3T]
Output line: -0.024

Input line: Another variant to look at: EELVKLQGERVRGSKQQKASAELIEEEVAKLLKLKAQL [L14S]
Output line: -0.101

Input line: Another variant to look at: EELVKLQGERVRGLKQQKASTELIEEEVAKLLKLKAQL [A21T]
Output line: -0.006

Input line: Another variant to look at: EELVKLQGERVRGLKQQKASAEYIEEEVAKLLKLKAQL [L23Y]
Output line: -0.358

Input line: Another variant to look at: EELVKLQGERVRGWKQQKASAELIEEEVAKLLKLKAQL [L14W]
Output line: -0.467

Input line: Another variant to look at: EELVKLQGERVRGLKQQFASAELIEEEVAKLLKLKAQL [K18F]
Output line: -0.45

Input line: Another variant to look at: VELVKLQGERVRGLKQQKASAELIEEEVAKLLKLKAQL [E1V]
Output line: -0.661

Input line: Another variant to look at: EELVKLQGERVRGLKQQKASAELIEEEMAKLLKLKAQL [V28M]
Output line: 0.06

Input line: Another variant to look at: EELQKLQGERVRGLKQQKASAELIEEEVAKLLKLKAQL [V4Q]
Output line: -0.563

Input line: Another variant to look at: MELVKLQGERVRGLKQQKASAELIEEEVAKLLKLKAQL [E1M]
Output line: -0.139

Input line: Another variant to look at: EELVKLQGERVRGLKQQKASAELIEEEVAKLLKLKAQP [L38P]
Output line: -0.026

Input line: Another variant to look at: EELVKLQGETVRGLKQQKASAELIEEEVAKLLKLKAQL [R10T]
Output line: 0.013

Input line: Another variant to look at: ESLVKLQGERVRGLKQQKASAELIEEEVAKLLKLKAQL [E2S]
Output line: -0.327

Input line: Another variant to look at: EELVKLQGERVRGLKQQKGSAELIEEEVAKLLKLKAQL [A19G]
Output line: -0.27

Input line: Another variant to look at: EFLVKLQGERVRGLKQQKASAELIEEEVAKLLKLKAQL [E2F]
Output line: -0.274

Input line: Another variant to look at: EELVKLQGERVRGLKCQKASAELIEEEVAKLLKLKAQL [Q16C]
Output line: -0.288

Input line: Another variant to look at: EELVKLQGERHRGLKQQKASAELIEEEVAKLLKLKAQL [V11H]
Output line: -0.209

Input line: Another variant to look at: EELVKLQGERVRGLKQQKASHELIEEEVAKLLKLKAQL [A21H]
Output line: -0.004

Input line: Another variant to look at: EELVKLQGERVRGLKQQKASAVLIEEEVAKLLKLKAQL [E22V]
Output line: 0.052

Input line: Another variant to look at: EELVKLQGERVRGLKEQKASAELIEEEVAKLLKLKAQL [Q16E]
Output line: 0.132

Input line: Another variant to look at: EELVKLQGERVRGLKQWKASAELIEEEVAKLLKLKAQL [Q17W]
Output line: -0.5

Input line: Another variant to look at: EELVKLQGERVRGLKQQKASAELIEEEVAKLLKLEAQL [K35E]
Output line: 0.193

Input line: Another variant to look at: EELVKLQGERVRGLKQQKASAELIEEEVAKLLKMKAQL [L34M]
Output line: 0.121
